This section presents compounds with their documented GI50 values.
# System: OVCAR-3 ovarian
# assay_method_text: NCI tumour cell line growth inhibition, 48 h

1. O=C(Nc1cccc(-n2cc(-c3ccncc3)c(-c3ccc(Cl)c(O)c3)n2)c1)c1ccc(N2CCOCC2)c(C(F)(F)F)c1    4.81 µM
2. O=c1oc(Cl)c(Cl)c2ccccc12    11.7 µM
3. COc1cc(Nc2c(C#N)cnc3cc(OCCCN4CCN(C)CC4)c(OC)cc23)c(Cl)cc1Cl    2.78 µM

Query block: I have this compound here, `CNCCCn1c2c(c3ccc([N+](=O)[O-])cc3c1=O)C(=O)c1cc(OC)cnc1-2` , and I need its recorded GI50.
Result block: 0.174 µM

Query block: I have this compound here, `C=C1/C(=C\C=C2/CCC[C@]3(C)[C@@H]([C@H](C)CCCC(C)(C)O)CC[C@@H]23)C[C@@H](OC(=O)CBr)C[C@@H]1O` , and I need its recorded GI50.
Result block: 0.395 µM

Query block: I have this compound here, `COc1cc2c(cc1O)CC[C@@H]1[C@@H]2CC[C@]2(C)[C@@H](OCCN(C)C)CC[C@@H]12` , and I need its recorded GI50.
Result block: 0.183 µM

Query block: I have this compound here, `CNC(=O)c1cccc2cc(Oc3ccnc4cc(OCC5(N)CC5)c(OC)cc34)ccc12` , and I need its recorded GI50.
Result block: 8.86 µM

Query block: I have this compound here, `O=C(Cn1c(=O)c(-c2ccccc2)nc2ccccc21)Nc1ccc(F)cc1` , and I need its recorded GI50.
Result block: > 100 µM

Query block: I have this compound here, `COc1cccc2c1ccc1nc3cccc(C(=O)N[C@H](C)CN(C)C)c3nc12` , and I need its recorded GI50.
Result block: 0.102 µM

Query block: I have this compound here, `O=C1C(N2CC2)=C(N2CC2)C(=O)C(N2CC2)=C1N1CC1` , and I need its recorded GI50.
Result block: 1.04 µM

====

# System: HS 578T breast
# assay_method_text: NCI tumour cell line growth inhibition, 48 h
measured_metric: GI50

Query block: Param readout = GI50; param system = HS 578T breast; param query = `CNC(=O)c1cccc2cc(Oc3ccnc4cc(OCC5(N)CC5)c(OC)cc34)ccc12` ; response: value
Result block: 5.5 µM

Query block: Param readout = GI50; param system = HS 578T breast; param query = `COc1cccc(C2=C(c3c(C)n(C)c4ccccc34)C(=O)NC2=O)c1` ; response: value
Result block: 12.1 µM

Query block: Param readout = GI50; param system = HS 578T breast; param query = `CCOC(=O)c1cc2c(n1Cc1cccc(OC)c1)-c1oncc1CCC2` ; response: value
Result block: 1.6 µM

====

# System: LXFL 529 NSCLC
# assay_method_text: NCI tumour cell line growth inhibition, 48 h
measured_metric: TGI

Take a look at these entries with their results.
1) COC1OC(CBr)C(OC(=O)c2ccccc2)C(O)C1Br (centres undefined)    > 100 µM
2) COc1cc(NC(C)CCCN)c2ncccc2c1 (centres undefined)    > 100 µM
3) CCN(CC)CCOc1ccc(CCc2cc(OC)c(OC)c(OC)c2)cc1    > 100 µM

Query block: I have this compound here, `COc1ccc2c(c1)[n+]([O-])c(-c1ccc(OC)c(OC)c1)c(N)[n+]2[O-]` , and I need its recorded TGI.
Result block: > 100 µM

Query block: I have this compound here, `CCSc1nc2cccc([N+](=O)[O-])c2n1CC` , and I need its recorded TGI.
Result block: > 100 µM

Query block: I have this compound here, O=C1c2ccccc2OP(=O)(OCC(F)(F)F)OC1(C(F)(F)F)C(F)(F)F (centres undefined) , and I need its recorded TGI.
Result block: > 100 µM

Query block: I have this compound here, `COC(=O)c1ccccc1OCc1cc(=O)oc2ccc(C)cc12` , and I need its recorded TGI.
Result block: > 100 µM

Query block: I have this compound here, COC(=O)C(C#CCCCCC#CC(NC(=O)OCc1ccccc1)(C(=O)OC)C(F)(F)F)(NC(=O)OCc1ccccc1)C(F)(F)F (centres undefined) , and I need its recorded TGI.
Result block: > 100 µM

Query block: I have this compound here, `Cc1cc2c(C)nn(Cc3ccccc3)c2c(C(N)=O)c1C` , and I need its recorded TGI.
Result block: > 100 µM
